- System: RXF 393
- assayOverview: NCI tumour cell line growth inhibition, 48 h
Calls of active or inactive are those of the source. No stated cut-off is given here; in the data, active = GI50 up to about 1.1 µM and inactive = higher.
Field 'call' accepts 1 for active, -1 for inactive

Prompt: How did this test come out for `Cc1nc2ccccc2c(=O)n1/N=C(\N=N\c1cc(Cl)ccc1Cl)c1ccccc1` ?
Response: -1

Prompt: How did this test come out for `CN(C)C(=S)Nc1nnc(Nc2ccccc2)s1` ?
Response: -1

Prompt: How did this test come out for CC(=O)c1ccc(NC(=O)C(=O)C(C(=O)/C=C/c2ccccc2)C2OC(=O)c3ccccc32)cc1 (stereo not drawn) ?
Response: -1

Prompt: How did this test come out for OC12CCCCCC1(N1CCOCC1)c1ccccc12 (stereo not drawn) ?
Response: -1

Prompt: How did this test come out for COC1/C=C/C=C(/C)Cc2cc(O)c(Cl)c(c2)N(C)C(=O)CC(OC(=O)C(C)C)C2(C)OC2C(C)C2CC1(O)NC(=O)O2 (stereo not drawn) ?
Response: 1

Prompt: How did this test come out for `COc1ccc(/N=C(Nc2ccc(OC)cc2)/C(=N/c2ccc(OC)cc2)Nc2ccc(OC)cc2)cc1` ?
Response: -1

Prompt: How did this test come out for O=C(O)C1CCC(=O)N1S(=O)(=O)c1ccccc1 (stereo not drawn) ?
Response: -1

Prompt: How did this test come out for `[N-]=[N+]=CC(=O)COC(=O)c1ccccc1` ?
Response: -1

Prompt: How did this test come out for O=C1C2C(C(=O)N1O)N(Cc1ccccc1)C(=O)N2Cc1ccccc1 (stereo not drawn) ?
Response: -1

Prompt: How did this test come out for `CN(C)Cc1cc(/N=N/c2ccc(Cl)cc2)cc(CN(C)C)c1O` ?
Response: -1

Prompt: How did this test come out for `BrCC[P+](c1ccccc1)(c1ccccc1)c1ccccc1` ?
Response: -1

Prompt: How did this test come out for `N#CCCCCCOCCOCCOCCOCCOCCCCCC#N` ?
Response: -1

Prompt: How did this test come out for `Sc1nn2c(COc3cccc(OCc4nnc5sc(S)nn45)c3)nnc2s1` ?
Response: -1

Prompt: How did this test come out for `CCCC(CCC(=O)O)(CCC(=O)O)[N+](=O)[O-]` ?
Response: -1

Prompt: How did this test come out for `N#Cc1c(Cl)c2cccnc2n2c1nc1ccccc12` ?
Response: -1

Prompt: How did this test come out for `CCOC(=O)C[n+]1ccc2c([nH]c3cc(OC)ccc32)c1C` ?
Response: -1

Prompt: How did this test come out for Cn1cc(-c2ccc(CCOC3CCCCO3)cc2)c2c(C#N)cccc21 (stereo not drawn) ?
Response: -1

Prompt: How did this test come out for `C[N+](C)([O-])CCCNc1c2ccccc2nc2cccc([N+](=O)[O-])c12` ?
Response: 1

Prompt: How did this test come out for `O=C1N[C@@H](O)[C@@H]2ON=C(c3ccccc3)[C@H]12` ?
Response: -1

Prompt: How did this test come out for CCOc1cc2c(cc1OC(C)=O)C(=O)CC[C@H]1C3CC[C@H](OC(C)=O)[C@@]3(C)CC[C@H]21 (stereo partly drawn) ?
Response: -1

Prompt: How did this test come out for `CCOC(=O)NC(=O)c1cn(CCCOC(=O)NCCCCCCNC(=O)OCCCn2cc(C(=O)NC(=O)OCC)c(=O)[nH]c2=O)c(=O)[nH]c1=O` ?
Response: -1

Prompt: How did this test come out for `CC(C)(C)OC(=O)N(CCCCNC(=O)c1ccccc1)CCCNC(=O)c1ccccc1` ?
Response: -1

Prompt: How did this test come out for `O=S(=O)(O)c1ccc(/N=N\c2c(O)ccc3cc(Br)ccc23)cc1` ?
Response: -1

Prompt: How did this test come out for `CC(/C=C/C(O)=C1/C(=O)CNC1=O)=C\[C@@H](C)[C@H]1O[C@@]2(C)O[C@H](C(=O)[C@@H]3O[C@@]32C)[C@@H]1C` ?
Response: -1

Prompt: How did this test come out for `COC(NC(=O)Nc1ccccc1C)(C(F)(F)F)C(F)(F)F` ?
Response: -1

Prompt: How did this test come out for `CSc1nc(-c2ccccc2)c2c(n1)-c1ccccc1CC2` ?
Response: -1

Prompt: How did this test come out for `CN1CCN(c2n[nH]c(=O)c3c2nnn3Cc2ccccc2)CC1` ?
Response: -1

Prompt: How did this test come out for `Cc1ccc(C(=O)C(C2=Nc3nnc(N)n3C2=O)C2=Nc3nnc(N)n3C2=O)cc1` ?
Response: -1

Prompt: How did this test come out for `C=CN1C(=O)[C@H](Oc2ccccc2)[C@@H]1c1ccccc1` ?
Response: -1

Prompt: How did this test come out for `O=C(c1ccccc1)N1C(=S)NC(=N/c2ccccc2)/C1=N\c1ccccc1` ?
Response: -1

Prompt: How did this test come out for `C[N+](C)(N)CCC[N+](C)(C)N` ?
Response: -1

Prompt: How did this test come out for `CNC1=Nc2ccc(Cl)cc2C(OP(=O)(N2CCOCC2)N2CCOCC2)=NC1` ?
Response: -1

Prompt: How did this test come out for CCOC(=O)C1(C(N)=O)C(=O)c2ccncc2C1=O (stereo not drawn) ?
Response: -1

Prompt: How did this test come out for `CCOC(=O)c1cc(-c2ccc(OC)cc2)c([N+](=O)[O-])[nH]1` ?
Response: -1

Prompt: How did this test come out for OC1/C(=C/c2ccccc2)CNC/C1=C\c1ccccc1 (stereo not drawn) ?
Response: -1

Prompt: How did this test come out for `COc1ccccc1-c1cc(=O)c2ccccc2n1C1CC1` ?
Response: -1

Prompt: How did this test come out for `O=C(O)/C(Cc1c[nH]nn1)=N\O` ?
Response: -1

Prompt: How did this test come out for `C1=C2SSC3=CC=C(SSc4ccc(s4)SSC4=CC=C(SSC(=C1)S2)S4)S3` ?
Response: -1

Each recorded value in this set is attributed to ChEMBL document CHEMBL1201862.
